System: PHA-induced IL-2 production in PBMCs
Assay: PHA-induced IL-2 production in PBMCs from healthy male smokers (no IL-2/IL-4 added), ELISA
Format: cell-based, human
Details: Homo sapiens, PBMC, read-out: Dexamethasone IC50, with 17HPC 10^−10M add-on
Recorded metric: IC50 (pM)
Answers are plain numbers, in pM.

Look up IC50: C[C@@H]1C[C@H]2[C@@H]3CCC4=CC(=O)C=C[C@]4(C)[C@@]3(F)[C@@H](O)C[C@]2(C)[C@@]1(O)C(=O)CO [Dexamethasone]
62.7

====

Tested on: PHA-induced IL-2 production in PBMCs
Experiment: PHA-induced IL-2 production in PBMCs from healthy male smokers (no IL-2/IL-4 added), ELISA
Format: cell-based, human
Settings: Homo sapiens, PBMC, read-out: Dexamethasone IC50, with 17HPC 10^−5M add-on
Recorded metric: pIC50
One number for each entry, as −log10 of the molar value.

Endpoint output: pIC50 of C[C@@H]1C[C@H]2[C@@H]3CCC4=CC(=O)C=C[C@]4(C)[C@@]3(F)[C@@H](O)C[C@]2(C)[C@@]1(O)C(=O)CO . Value?
7.60

Values were extracted from patent US20110262502A1.
